# assay.method.text: qHTS of pediatric cancer cell lines to identify multiple opportunities for drug repurposing: Confirmatory screen for OHS-50 cells (AID 1347128);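 note: compound exposure lasted 48 h at 37 degrees C; nearly all actives have a fitted effect of over 55% in size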
# condition.info: OHS-50 osteosarcoma cells viability; series mostly up to 45.9 µM
# Procedure: Drug repurposing or repositioning has been offered as a strategy for drug development in oncology programs. […] [1] Shen, M et al. Quantitative high-throughput phenotypic screening of pediatric cancer cell lines identifies multiple opportunities for drug repurposing. […] Cells were assayed in growth media at a density of 500-1,000 cells/well. […] After a 15 min incubation at room temperature, samples were analyzed for luminescence intensity using a ViewLux High-throughput CCD imager equipped with clear filters.
Inconclusive results are not listed. Calls of active or inactive are those of the source. Calls come from the whole dose curve; as a rule, active = well fitted cell-killing curve with a large enough effect; inconclusive = small, poorly fitted or top-dose-only effect, or effect the other way; inactive = no such curve, though single readings can be large or run the other way.
Pick one: label 1 = active, label 0 = inactive

Example results:
>>> label("O=C(Nc1cc(C(F)(F)F)cc(C(F)(F)F)c1)c1cc(Cl)ccc1O")
"label 1"
>>> label("CN(c1ncccc1CNc1nc(Nc2ccc3c(c2)CC(=O)N3)ncc1C(F)(F)F)S(C)(=O)=O")
"label 1"
>>> label("Cc1c(CN2CCN(S(C)(=O)=O)CC2)sc2c(N3CCOCC3)nc(-c3cnc(N)nc3)nc12")
"label 1"
>>> label("Cc1cn(-c2cc(NC(=O)c3ccc(C)c(Nc4nccc(-c5cccnc5)n4)c3)cc(C(F)(F)F)c2)cn1")
"label 1"
>>> label("COc1c(OCCCN2CCOCC2)ccc2c3n(c(=NC(=O)c4cnc(N)nc4)nc12)CCN3")
"label 1"
>>> label("Cc1nc2cnc3ccc(C#Cc4cccnc4)cc3c2n1-c1ccc(C(C)(C)C#N)cc1")
"label 1"
>>> label("CC[C@H]1CN2CCc3cc(OC)c(OC)cc3[C@H]2C[C@@H]1C[C@@H]1NCCc2cc(OC)c(OC)cc21")
"label 1"
>>> label("Cn1c2ccccc2c2c3c(c4c5ccccc5n(CCC#N)c4c21)CNC3=O")
"label 1"

Identify the outcome logged in this assay for the compound shown: `COc1ccc(-n2nc(C(N)=O)c3c2C(=O)N(c2ccc(N4CCCCC4=O)cc2)CC3)cc1` label 0

Identify the outcome logged in this assay for the compound shown: `CNC(=O)c1ccccc1Nc1nc(Nc2ccc(N3CCOCC3)cc2OC)ncc1Cl` label 1

Identify the outcome logged in this assay for the compound shown: `COc1ccc(OC)c(-c2nnc3ccc(-c4ccc(OC)c(O[C@@H]5CCOC5)c4)nn23)c1` label 1

Identify the outcome logged in this assay for the compound shown: `Cc1[nH]nc2ccc(-c3cncc(OC[C@@H](N)Cc4ccccc4)c3)cc12` label 1

Identify the outcome logged in this assay for the compound shown: `COc1cc(Nc2ncc(F)c(Nc3ccc4c(n3)N(COP(=O)(O)O)C(=O)C(C)(C)O4)n2)cc(OC)c1OC` label 1

Identify the outcome logged in this assay for the compound shown: `C[C@@]12O[C@@H](C[C@]1(O)CO)n1c3ccccc3c3c4c(c5c6ccccc6n2c5c31)CNC4=O` label 1

* * *

# assay.method.text: Quantitative High-Throughput drug screen in 47 multiple myeloma cell lines against the NCATS MIPE library collection: KMS12BM_JCRB cell viability assay (AID 1918971); note: nearly all actives have a fitted effect of over 35% in size
# condition.info: KMS12BM myeloma viability, CellTiter-Glo ATP, 48 h; series mostly up to 45.8 µM
Inconclusive results are not listed. The source made the active and inactive calls. Calls follow the shape of the dose curve; as a rule, active = well fitted cell-killing curve with a large enough effect; inconclusive = small, poorly fitted or top-dose-only effect, or effect the other way; inactive = no such curve, though single readings can be large or run the other way.
Pick one: active, inactive

Example results:
>>> label("COc1ccc(CC2SC(=O)NC2=O)cc1C(=O)NCc1ccc(C(F)(F)F)cc1 (stereo unspecified)")
"inactive"
>>> label("COC(=O)Nc1nc2ccc(C(=O)c3ccc(F)cc3)cc2[nH]1")
"active"

Identify the outcome logged in this assay for the molecule shown: `CC(=O)Nc1nc(C)c(-c2ccc(Cl)c(S(=O)(=O)NCCO)c2)s1` active

Identify the outcome logged in this assay for the molecule shown: `Cn1cc(-c2[nH]c3cc(NC(=O)[C@H](N)C4CCCCC4)cc4c3c2C=NNC4=O)cn1` active

Identify the outcome logged in this assay for the molecule shown: `COc1cc2c(Oc3ccc(-c4cnc(Nc5ccc(F)cc5)n(C)c4=O)cc3F)ccnc2cc1OCCCN1CCOCC1` active

Identify the outcome logged in this assay for the molecule shown: `COc1cc(C(=O)N2CCC(N3CCN(C)CC3)CC2)ccc1Nc1ncc2c(n1)N(C)c1ccccc1C(=O)N2C` active
